Tested on: HOP-92 NSCLC
protocol-details: NCI tumour cell line growth inhibition, 48 h
Binary classification by TGI, with 6 µM as an inclusive lower bound for criterion met; all other cases are criterion not met.

molecule="COC(=O)C(=O)C(C(=O)C(=O)Nc1ccc(C)cc1)c1nc2ccc(C(=O)c3ccccc3)cc2[nH]c1=O (centres undefined)" test_system="HOP-92 NSCLC" group="criterion met"
molecule=COC(=O)c1c(C(=O)OC)c2c3ccccc3n(C)c2c2c1c1ccccc1n2C test_system="HOP-92 NSCLC" group="criterion met"
molecule=CN(C)C(=O)C1CCN(Cc2c[nH]c3ccccc23)CC1 test_system="HOP-92 NSCLC" group="criterion met"
molecule=COC(=O)C1=C(C(=O)OC)C2OC1c1cc3ccccc3cc12 test_system="HOP-92 NSCLC" group="criterion met"
molecule=NC(=S)NS(=O)(=O)c1ccc(F)cc1F test_system="HOP-92 NSCLC" group="criterion met"
molecule=COc1ccc2c(CCNS(=O)(=O)c3ccccc3)c(C(C)=O)[nH]c2c1 test_system="HOP-92 NSCLC" group="criterion met"
molecule=CC(=O)O[C@H]1C(=O)[C@@]2(C)[C@H]([C@H](OC(=O)c3ccccc3)[C@@]3(O)C[C@H](O)C(C)=C1C3(C)C)[C@]1(OC(C)=O)CO[C@@H]1C[C@@H]2O test_system="HOP-92 NSCLC" group="criterion met"
molecule=CCN(CC)C(=S)SS(=O)(=O)c1ccccc1[N+](=O)[O-] test_system="HOP-92 NSCLC" group="criterion met"
molecule=CC1=CC(C)(C)Nc2ccc(CSc3ccccc3)cc21 test_system="HOP-92 NSCLC" group="criterion met"
molecule=O=C(O)Cn1c2c(c3c(O)cccc31)C(=O)c1ccccc1-2 test_system="HOP-92 NSCLC" group="criterion met"
molecule=NC(N)=NS(=O)(=O)c1ccc(NC(=O)c2ccc3[nH]c4ccccc4c(=O)c3c2)cc1 test_system="HOP-92 NSCLC" group="criterion met"
molecule=Oc1ccc(-c2cn3cc(C(F)(F)F)ccc3n2)cc1 test_system="HOP-92 NSCLC" group="criterion met"
molecule="C=C1C(=O)OC2C1C(OC(=O)/C(C)=C\\C)CC1(CO1)C1C(O)C=C(C)C21O (centres undefined)" test_system="HOP-92 NSCLC" group="criterion met"
molecule="C[C@]12CC/C(=N\\OCCN3CCCCC3)C=C1CCC1C2CC[C@@]2(C)C1CC[C@]2(C)O (some centres undefined)" test_system="HOP-92 NSCLC" group="criterion met"
molecule="CSc1nc(NC2OC(COC(C)=O)C(OC(C)=O)C(OC(C)=O)C2OC(C)=O)c(N=C(C)C(C)=O)c(=O)n1C (centres undefined)" test_system="HOP-92 NSCLC" group="criterion met"
molecule=COc1ncnc2c1cnn2Cc1cn(CCCCO)nn1 test_system="HOP-92 NSCLC" group="criterion met"
molecule=CN1CCN(Cc2ccc(NC(=O)c3cncc(C#Cc4cnn5ccccc45)c3)cc2C(F)(F)F)CC1 test_system="HOP-92 NSCLC" group="criterion not met"
molecule=CC(C)(C)c1ccc(O)c(CN(Cc2cc(C(C)(C)C)ccc2O)C2CCCCC2)c1 test_system="HOP-92 NSCLC" group="criterion met"
molecule=CCN(CC)COC(=S)S test_system="HOP-92 NSCLC" group="criterion met"
molecule=O=C(Nc1ccc2c(c1)OCO2)C(=O)c1c[nH]c2cc(F)ccc12 test_system="HOP-92 NSCLC" group="criterion not met"
molecule=CCN(CC)CC(C)(C)C(=O)/C=C/c1ccc(/C=C/C(=O)C(C)(C)CN(CC)CC)cc1 test_system="HOP-92 NSCLC" group="criterion not met"
molecule=C=CCc1cccc(/C=N\N=C(/N)NO)c1O test_system="HOP-92 NSCLC" group="criterion met"
molecule=CCO[C@@H]1OC(=O)[C@@](C)(C(C)=O)[C@@H]1C test_system="HOP-92 NSCLC" group="criterion met"
molecule=O=C1NC(S(=O)(=O)O)=NNC12c1ccccc1-c1ccccc12 test_system="HOP-92 NSCLC" group="criterion met"
molecule=CCOC(=O)c1cc(-c2ccc(OC)c(OC)c2)[nH]c1N/N=C/c1c(Cl)cccc1Cl test_system="HOP-92 NSCLC" group="criterion met"
molecule=CCCCCCN(C)Cc1ccc(OCCOc2ccc(CN(C)CCCCCC)cc2)cc1 test_system="HOP-92 NSCLC" group="criterion not met"
molecule="C=C1C(=O)OC2CC3(C)CCCC(C)C3=CC12 (centres undefined)" test_system="HOP-92 NSCLC" group="criterion met"
molecule=CCOC(=O)N1[C@@H]2CCC[C@@H]2C(=O)[C@@H]2CCC[C@@H]21 test_system="HOP-92 NSCLC" group="criterion met"
molecule=COc1cc2c(cc1OC)c1c(OC)c(OC)cc3c1c1c2sc(=S)n1CC3 test_system="HOP-92 NSCLC" group="criterion met"
molecule="CC[C@@H](C)Nc1cc(C(=O)NC2CC3CCC(C2)N3c2ccc(C(=O)C3CC3)cn2)c(C)cc1C(N)=O (some centres undefined)" test_system="HOP-92 NSCLC" group="criterion not met"
molecule="CC(Oc1ccccc1Cl)C(=O)NN1C(=O)CSC1c1ccc(Cl)cc1 (centres undefined)" test_system="HOP-92 NSCLC" group="criterion met"
molecule="CC(=O)ON(C(C)=O)C1C(COC(c2ccccc2)(c2ccccc2)c2ccccc2)OC2OC3(CCCC3)OC21 (centres undefined)" test_system="HOP-92 NSCLC" group="criterion met"
molecule=O=S(=O)(Nc1ccc2ccccc2c1)c1ccc(-c2cnc(C3CC3)o2)cc1 test_system="HOP-92 NSCLC" group="criterion met"
molecule=COc1ccc(CNc2cnc3cc(N)cc(N)c3n2)cc1 test_system="HOP-92 NSCLC" group="criterion met"
molecule="CC1OC(O[C@H]2CC[C@]3(C=O)[C@H]4CC[C@]5(C)[C@H](C6=CC(=O)OC6)CC[C@]5(O)[C@@H]4C=C[C@]3(O)C2)CC(O)C1O (some centres undefined)" test_system="HOP-92 NSCLC" group="criterion not met"
molecule="O=C(NN1C(=O)CSC12CCCC2)C(O)c1ccccc1 (centres undefined)" test_system="HOP-92 NSCLC" group="criterion met"
molecule=Cc1c2c(ccc3ccccc32)c[n+]2ccccc12 test_system="HOP-92 NSCLC" group="criterion met"
molecule=Cc1cc(C)n(C(=O)CSc2nnc(SCC(=O)n3nc(C)cc3C)s2)n1 test_system="HOP-92 NSCLC" group="criterion met"
molecule="COC1(CC[C@H](C)COC2OC(CO)C(O)C(O)C2O)O[C@H]2C[C@H]3[C@@H]4CC=C5C[C@@H](OC6OC(CO)C(O)C(OC7OC(CO)C(O)C(O)C7O)C6OC6OC(C)C(O)C(O)C6O)CC[C@]5(C)[C@H]4CC[C@]3(C)[C@H]2[C@@H]1C (some centres undefined)" test_system="HOP-92 NSCLC" group="criterion met"
